# measured_on: Carbonic anhydrase 1 (Homo sapiens, UniProt P00915)
# Sequence (P00915 whole entry): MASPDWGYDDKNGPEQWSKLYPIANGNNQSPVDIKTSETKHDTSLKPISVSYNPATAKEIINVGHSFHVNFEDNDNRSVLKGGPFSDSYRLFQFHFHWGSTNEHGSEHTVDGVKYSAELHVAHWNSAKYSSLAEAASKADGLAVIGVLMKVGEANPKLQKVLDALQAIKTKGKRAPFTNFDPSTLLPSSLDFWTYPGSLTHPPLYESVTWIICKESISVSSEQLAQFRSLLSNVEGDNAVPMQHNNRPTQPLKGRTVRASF
value_kind: IC50 (nM)
Record the value in nM, omitting the unit from your answer.

**Query** For the compound shown here, C[C@]12CC[C@@H]3c4ccc(OS(N)(=O)=O)cc4CCC3[C@@H]1CCC2=O (single isomer, unassigned) [EMATE] , give the reported IC50.
**Result** 37
